Biological target: cynomolgus CD19 (cynomolgus)
Experiment: Octet HTX (ForteBio), IgG on AHC sensor, 1:1 fit
Entries and their koff
Reply numerically in s⁻¹, unit not repeated.

Lookup: Query (binder): CNG-CD19-703 (antibody, V domains shown) VH: QVQLQESGPGLVKPSQTLSLTCTVSGGSISTSTMGVGWIRQHPGKGLEWIGFIWWDDDKRYNPNLKSRVTMSVDTSKNQFSLKLSSVTAADTAVYYCARMELWSYYFEYWGQGTLVTVSS VL: EIVLTQSPATLSLSPGERATLSCSASSSVSYMHWYQQKPGQAPRLLIYDTSKLASGIPARFSGSGSGTDFTLTISSLEPEDFAVYYCFQGSVYPFTFGQGTKLEIK ; field requested: koff
Found: 0.000352

Lookup: Now give it for CNG-CD19-704 (antibody, V domains shown) VH: QVQLQESGPGLVKPSQTLSLTCTVSGGSIASGMGVGWIRQHPGKGLEWIGHIWWDDDKRYNPALKSRVTISVDTSKNQFSLKLSSVTAADTAVYYCARMELWSYYFDGWGQGTLVTVSS VL: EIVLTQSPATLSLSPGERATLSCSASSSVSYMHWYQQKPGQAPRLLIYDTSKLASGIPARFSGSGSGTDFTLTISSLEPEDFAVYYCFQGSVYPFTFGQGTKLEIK too.
Found: 0.000194
